system-name: UP1 (hnRNP A1 RRM1-RRM2) (UniProt P09651 1-196)
Sequence (P09651 1-196): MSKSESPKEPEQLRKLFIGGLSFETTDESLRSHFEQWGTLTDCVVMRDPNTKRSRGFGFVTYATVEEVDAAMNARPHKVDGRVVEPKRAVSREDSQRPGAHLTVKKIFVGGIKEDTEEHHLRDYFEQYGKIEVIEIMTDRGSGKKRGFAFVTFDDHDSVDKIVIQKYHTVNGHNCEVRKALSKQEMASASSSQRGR
assay-protocol: ITC; N=1.35; ITC: 20 mM Na phosphate pH 6.5, 100 mM NaCl, no DTT, 25 C; EMSA: 100 mM KCl, 20% glycerol, 0.2 mM EDTA, 100 mM Tris pH 8.0, 0.5 mM DTT, 0.5 mM ATP, 20 mM creatine phosphate, 3.2 mM MgCl2, 4 C; footprint: 12 mM Tris-HCl pH 7.5, 48 mM NaCl, 1.2 mM MgCl2, 37 C
protocol-conditions: protein: recombinant; tags: His tag removed by TEV; hairpin
readout-name: Kd (nM)
State just the number; it will be interpreted in nM.

Briefly, Kd measured for pri-mir-18a 71-mer (structured_RNA) RNA: GGUUCUAAGGUGCAUCUAGUGCAGAUAGUGAAGUAGAUUAGCAUCUACUGCCCUAAGUGCUCCUUCUGGCC : 148
